Below: a set of entries, each annotated with reported pEC50.
- TARGET DESC: hemolysin alpha from Staphylococcus aureus (Staphylococcus aureus, UniProt P09616)
- Sequence (P09616 27-319 limits assumed): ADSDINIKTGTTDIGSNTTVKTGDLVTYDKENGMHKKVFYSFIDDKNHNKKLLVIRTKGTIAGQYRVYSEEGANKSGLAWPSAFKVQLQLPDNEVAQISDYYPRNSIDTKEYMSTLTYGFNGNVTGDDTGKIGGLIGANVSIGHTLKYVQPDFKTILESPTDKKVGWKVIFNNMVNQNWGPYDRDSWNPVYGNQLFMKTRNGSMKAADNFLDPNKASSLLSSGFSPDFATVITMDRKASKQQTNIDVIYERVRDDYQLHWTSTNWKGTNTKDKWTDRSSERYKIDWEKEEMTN
- EXPERIMENT DESCRIPTION: cell-based
pEC50: −log10 of the molar value.

- CHEMICAL SMILES: "Cc1cc2[nH]c(=O)c(=O)[nH]c2cc1S(=O)(=O)Nc1ccc(-c2ccc(Cl)c(Cl)c2)c(Cl)c1"
  TARGET DESC: "hemolysin alpha from Staphylococcus aureus (Staphylococcus aureus, UniProt P09616)"
  pEC50: "> 7.52"
- CHEMICAL SMILES: "O=c1[nH]c2cc(C(F)(F)F)c(S(=O)(=O)Nc3ccc(OC(F)(F)F)cc3)cc2[nH]c1=O"
  TARGET DESC: "hemolysin alpha from Staphylococcus aureus (Staphylococcus aureus, UniProt P09616)"
  pEC50: "6.00 to 7.00"
- CHEMICAL SMILES: "Cc1cc2[nH]c(=O)c(=O)[nH]c2cc1S(=O)(=O)Nc1ccc(-c2ccc3c(c2)CCCN3)c(Cl)c1"
  TARGET DESC: "hemolysin alpha from Staphylococcus aureus (Staphylococcus aureus, UniProt P09616)"
  pEC50: "> 7.52"
- CHEMICAL SMILES: "Cc1cc2[nH]c(=O)c(=O)[nH]c2cc1S(=O)(=O)Nc1ccc(-c2ccc(C#N)nc2)c(Cl)c1"
  TARGET DESC: "hemolysin alpha from Staphylococcus aureus (Staphylococcus aureus, UniProt P09616)"
  pEC50: "6.00 to 7.00"
- CHEMICAL SMILES: "Cc1cc2[nH]c(=O)c(=O)[nH]c2cc1S(=O)(=O)Nc1ccc(-c2ccc(F)cc2)c(Br)c1"
  TARGET DESC: "hemolysin alpha from Staphylococcus aureus (Staphylococcus aureus, UniProt P09616)"
  pEC50: "> 7.52"
- CHEMICAL SMILES: "Cc1cc2[nH]c(=O)c(=O)[nH]c2cc1S(=O)(=O)Nc1cc(Cl)c(Br)cn1"
  TARGET DESC: "hemolysin alpha from Staphylococcus aureus (Staphylococcus aureus, UniProt P09616)"
  pEC50: "5.46 to 6.00"
- CHEMICAL SMILES: "COc1cc2[nH]c(=O)c(=O)[nH]c2cc1S(=O)(=O)Nc1ccc(SC(F)(F)F)cc1"
  TARGET DESC: "hemolysin alpha from Staphylococcus aureus (Staphylococcus aureus, UniProt P09616)"
  pEC50: "5.46 to 6.00"

Reference for the values: patent US20240376084A1
